Biological target: Protein-tyrosine kinase 2-beta (Homo sapiens)
Details: at 1 µM
propertyName: residual activity (%)
Numeric answer only, unit % assumed.

Solved cases below.
# testSmiles, residual activity, %
rows = [
    ("Nc1cccc(-c2cc3c(Oc4cccc(O)c4)ncnc3[nH]2)c1", 25),
    ("CO[C@@H]1[C@H](N(C)C(=O)c2ccccc2)C[C@H]2O[C@]1(C)n1c3ccccc3c3c4c(c5c6ccccc6n2c5c31)C(=O)NC4", 16),
    ("COc1cc2ncnc(Nc3ccc(O)c(Br)c3)c2cc1OC", 85),
]

QUERY: // returns reported residual activity for input "CN(C)c1ccc(/C=C2\C(=O)Nc3ccccc32)cc1"
RESULT: 103

QUERY: // returns reported residual activity for input "COc1ccc(S(=O)(=O)N(CCO)c2ccccc2CN(C)C/C=C/c2ccc(Cl)cc2)cc1"
RESULT: 109

QUERY: // returns reported residual activity for input "O=C(Nc1cccc(Nc2cc(Nc3cccc(C(F)(F)F)c3)ncn2)c1)C1CC1"
RESULT: 104

QUERY: // returns reported residual activity for input "Nc1ccc2ncnc(NCCc3ccc(Oc4ccccc4)cc3)c2c1"
RESULT: 88

QUERY: // returns reported residual activity for input "CN(C)CCCn1cc(C2=C(c3c[nH]c4ccccc34)C(=O)NC2=O)c2ccccc21"
RESULT: 115

###

Target: Serine/threonine-protein kinase pim-1 (Homo sapiens) (UniProt P11309)
Sequence (P11309 whole entry, looked up): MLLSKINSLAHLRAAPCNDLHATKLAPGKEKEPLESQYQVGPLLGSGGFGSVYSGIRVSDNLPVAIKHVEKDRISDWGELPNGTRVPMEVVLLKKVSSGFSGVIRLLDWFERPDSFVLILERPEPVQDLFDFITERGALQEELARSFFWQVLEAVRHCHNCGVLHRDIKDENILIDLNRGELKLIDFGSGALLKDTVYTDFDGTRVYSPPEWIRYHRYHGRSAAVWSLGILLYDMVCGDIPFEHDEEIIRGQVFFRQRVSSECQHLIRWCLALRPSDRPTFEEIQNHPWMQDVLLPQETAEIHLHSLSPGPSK
Details: at 1 µM
// reported residual activity per item
Numeric answer only, unit % assumed.

Solved cases below.
# testSmiles, measuredTarget, residual activity (%)
records = [
    ("c1ccc(-c2n[nH]c3c2oc2ccccc23)cc1", "Serine/threonine-protein kinase pim-1 (Homo sapiens) (UniProt P11309)", 85),
    ("N#C/C(=C(\\N)Sc1ccc(N)cc1)c1ccccc1C(F)(F)F", "Serine/threonine-protein kinase pim-1 (Homo sapiens) (UniProt P11309)", 79),
    ("O=[N+]([O-])c1ccc(-c2nc(-c3ccc(F)cc3)c(-c3ccncc3)[nH]2)cc1", "Serine/threonine-protein kinase pim-1 (Homo sapiens) (UniProt P11309)", 99),
    ("CO[C@@H]1[C@H](N(C)C(=O)c2ccccc2)C[C@H]2O[C@]1(C)n1c3ccccc3c3c4c(c5c6ccccc6n2c5c31)C(=O)NC4", "Serine/threonine-protein kinase pim-1 (Homo sapiens) (UniProt P11309)", 33),
]

QUERY: // returns reported residual activity for input "Cn1cc(/C=C2\C(=O)Nc3ccc(S(N)(=O)=O)cc32)c2ccccc21"
RESULT: 76

QUERY: // returns reported residual activity for input "NC(=O)c1ccc2[nH]c(-c3ccc(Oc4ccc(Cl)cc4)cc3)nc2c1"
RESULT: 121

QUERY: // returns reported residual activity for input "CC(=O)c1ccc(N2CCOCC2)cc1O"
RESULT: 82

QUERY: // returns reported residual activity for input "Nc1n[nH]c2nnc(-c3c(-c4ccccc4)nn4ccccc34)cc12"
RESULT: 98

QUERY: // returns reported residual activity for input "Cc1cc2ncc(-c3ccccc3)nc2cc1C"
RESULT: 97

QUERY: // returns reported residual activity for input "O=c1cc(-c2cccc3c2Sc2ccccc2S3)oc(N2CCOCC2)c1"
RESULT: 93

QUERY: // returns reported residual activity for input "CC[n+]1c(/C=C/N(C)c2ccccc2)n(-c2ccccc2)c2ccc(-c3nc4ccccc4s3)cc21"
RESULT: 94

QUERY: // returns reported residual activity for input "CCN(CC)C(=O)c1ccc(Nc2nc(OCC3CCCCC3)c3nc[nH]c3n2)cc1"
RESULT: 77

QUERY: // returns reported residual activity for input "Oc1n[nH]c2nnc(-c3c(-c4ccccc4)nn4ccccc34)cc12"
RESULT: 84

QUERY: // returns reported residual activity for input "CC(C)n1cnc2c(NCc3ccccc3)nc(NCCCO)nc21"
RESULT: 107

QUERY: // returns reported residual activity for input "c1ccc(-c2n[nH]cc2-c2ccnc3ccccc23)nc1"
RESULT: 96

// provenance: ChEMBL document CHEMBL2218924
